Sourced from PubChem BioAssay AID1902

assaySystem: S. pyogenes SKKanGAS, kanamycin survival, BacTiterGlo, 6 h
testDescription: S. pyogenes SKKanGAS kanamycin growth inhibitors – SKKanGAS strain, luminescence, dose confirmation, streptokinase promoter inhibitor project, dose response (AID 1902);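 further: lower survival reflects blocked streptokinase promoter driving kanamycin resistance gene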
Active and inactive are the calls of the source.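 How the source made its calls: active means EC50 no more than a set limit of log units above the highest dose; inactive means the rest.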
Would you mind answering with one of these outcomes? active, inactive

[Q] Short answer needed: outcome of this test for "Cc1ccc(S(=O)(=O)Nc2cccc3ncccc23)s1" ?
[A] active

[Q] Short answer needed: outcome of this test for "COc1ccc2[nH]c3c(=O)n(/N=C/c4ccc(OC)c(CN5CCCC5)c4)c(C)nc3c2c1" ?
[A] active

[Q] Short answer needed: outcome of this test for "C=CCn1c(=O)c(C(=O)NCc2ccccc2)c(O)c2ccccc21" ?
[A] active

[Q] Short answer needed: outcome of this test for COc1c(CC=C(C)C)cc(C2CC(=O)c3c(O)cc(O)cc3O2)c(CC=C(C)C)c1O (stereo unspecified) ?
[A] active

[Q] Short answer needed: outcome of this test for "COC(=O)c1cc(S(=O)(=O)n2nc(C)c(Br)c2C)c(Cl)cc1Cl" ?
[A] active

[Q] Short answer needed: outcome of this test for "COc1ccc(-c2cc3nc[nH]c(=O)c3s2)cc1" ?
[A] active

[Q] Short answer needed: outcome of this test for CC1(C)Cc2c(cnn2-c2ccccc2)C(NC(=O)CCCN2CCCC2=O)C1 (stereo unspecified) ?
[A] inactive

[Q] Short answer needed: outcome of this test for "CCCn1c(NC(=O)C23CC4CC(CC(O)(C4)C2)C3)nc2ccccc21" ?
[A] active

[Q] Short answer needed: outcome of this test for "Cc1ccccc1/C=N/Nc1nc2ccccc2[nH]1" ?
[A] active

[Q] Short answer needed: outcome of this test for "O=S(=O)(NCCSCc1c(Cl)cccc1Cl)c1ccc2c(c1)OCCO2" ?
[A] active

[Q] Short answer needed: outcome of this test for C=CCOC(=O)C1=C(C)NC(SCC)=C(C#N)C1c1ccc(Cl)cc1 (stereo unspecified) ?
[A] active
